These data points were gathered from patent US5936097A.

molecular target: human farnesyl transferase (Homo sapiens, UniProt P49354+P49356); construct: human farnesyl transferase purified from THP1 cell cultures; endogenous in cells; host or cells: THP1 cell cultures (enzyme purified from the cells); experiment: inhibition of farnesyl transferase ((3H) farnesyl transfer from (3H) FPP to p21 H-ras); format: biochemical; conditions: human farnesyl transferase purified from THP1 cell cultures; p21 H-ras substrate; 20 minutes at 37° C.; 9 concentrations; read-out: in vitro inhibitory activity IC50
test.readout: IC50 (µM)

molecule	system	IC50 / µM
COc1ccccc1CC(=O)N1C[C@H]2[C@@]3(c4ccccc4)CC[C@H](c4ccccc43)[C@@]2(C(=O)NC(Cc2c[nH]cn2)C(=O)O)C1 (some centres unmarked)	human farnesyl transferase (Homo sapiens, UniProt P49354+P49356)	0.19

[1] C=C(C(=O)N1C[C@H]2[C@@]3(c4ccccc4)CC[C@H](c4ccccc43)[C@@]2(C(=O)NCc2cccs2)C1)c1ccccc1OC
[2] COc1ccccc1CC(=O)N1C[C@H]2[C@@]3(c4ccccc4)CC[C@H](c4ccccc43)[C@@]2(CC(=O)NC(CCSC)C(=O)O)C1 (some centres unmarked)
[3] CONC(=O)[C@@]12CN(C(=O)Cc3ccccc3OC)C[C@@H]1[C@]1(c3ccccc3)CC[C@H]2c2ccccc21 (relative stereo)
[4] COc1ccccc1CC(=O)N1CC2C3(c4ccccc4)CCC(c4ccccc43)C2(C(=O)N[C@@H](CS)C(=O)O)C1 (some centres unmarked)
List the 4 entries from lowest IC50 to highest IC50 value. Reply format: the labels, ordered as requested. 1, 4, 2, 3

* * *

target: human farnesyl transferase (Homo sapiens, UniProt P49354+P49356); construct: human farnesyl transferase purified from THP1 cell cultures; endogenous in cells; host or cells: THP1 cell cultures (enzyme purified from the cells); assay: inhibition of farnesyl transferase ((3H) farnesyl transfer from (3H) FPP to p21 H-ras); format: biochemical
test.readout: IC50 (µM)
Number only, in µM; omit the unit.

Field: example entries. Status: answers known.
compound	unit.annotation	IC50
O=C(Cc1ccccc1O)N1C[C@@H]2[C@]3(c4ccccc4)CC[C@@H](c4ccccc43)[C@]2(C(=O)O)C1 (relative stereo)	µM	1.8
Cc1ccccc1CC(=O)N1C[C@@H]2[C@]3(c4ccccc4)CC[C@@H](c4ccccc43)[C@]2(C(=O)O)C1 (relative stereo)	µM	1.15

Sample COc1ccccc1CC(=O)N1C[C@@H]2[C@]3(c4ccccc4)CC[C@@H](c4ccc(I)cc43)[C@]2(C(=O)O)C1 (relative stereo) — what was its IC50? 0.7

* * *

Molecular target: human farnesyl transferase (Homo sapiens, UniProt P49354+P49356)
Construct: human farnesyl transferase purified from THP1 cell cultures; endogenous in cells; host or cells: THP1 cell cultures (enzyme purified from the cells)
Experiment: inhibition of farnesyl transferase ((3H) farnesyl transfer from (3H) FPP to p21 H-ras)
Assay type: biochemical
Conditions: human farnesyl transferase purified from THP1 cell cultures; p21 H-ras substrate; 20 minutes at 37° C.; 9 concentrations; read-out: in vitro inhibitory activity IC50
Protocol: Farnesyl transferase activity is determined by the amount of (^3 H) farnesyl transferred from (^3 H) farnesylpyrophosphate [(^3 H) FPP] to the p21 H-ras protein. […] Reaction is initiated by adding approximately 5 ng of human farnesyl transferase purified from THP1 cell cultures. […] The membranes are dried in a microwave oven, then impregnated with scintillation medium by melting of Meltilex® (Pharmacia) under hot air, and lastly counted in cpm in a b-Plate counter® (LKB). […]
test.readout: IC50 (nM)

Field: example entries. Status: answers known.
molecule	system	readout.value
COc1ccccc1CC(=O)N1C[C@H]2[C@@]3(c4ccccc4)CC[C@H](c4ccccc43)[C@@]2(CCC(=O)O)C1 (relative stereo)	human farnesyl transferase (Homo sapiens, UniProt P49354+P49356)	2600
COc1ccccc1CC(=O)N1C[C@H]2[C@@]3(c4ccccc4)CC[C@H](c4ccccc43)[C@@]2(CSCCC(=O)O)C1 (relative stereo)	human farnesyl transferase (Homo sapiens, UniProt P49354+P49356)	2300
COc1ccccc1CC(=O)N1C[C@H]2[C@@]3(c4ccccc4)CC[C@H](c4ccccc43)[C@@]2(C(=O)NCCN(C)C)C1 (relative stereo)	human farnesyl transferase (Homo sapiens, UniProt P49354+P49356)	9400
CC(=O)Oc1ccccc1CC(=O)N1C[C@H]2[C@@]3(c4ccccc4)CC[C@H](c4ccccc43)[C@@]2(C(=O)O)C1 (relative stereo)	human farnesyl transferase (Homo sapiens, UniProt P49354+P49356)	2300
C=C(C(=O)N1C[C@H]2[C@@]3(c4ccccc4)CC[C@H](c4ccccc43)[C@@]2(C(=O)N[C@H](C(=O)OC)c2ccccc2)C1)c1ccccc1OC	human farnesyl transferase (Homo sapiens, UniProt P49354+P49356)	690

[P] COc1ccccc1CC(=O)N1C[C@H]2[C@@]3(c4ccccc4)CC[C@H](c4ccccc43)[C@@]2(C[n+]2ccccc2)C1 (relative stereo)
[Q] COc1ccccc1CC(=O)N1C[C@H]2[C@@]3(c4ccccc4)CC[C@H](c4ccccc43)[C@@]2(NC(=O)CCC(=O)O)C1 (relative stereo)
[R] CC(C)Oc1ccccc1CC(=O)N1C[C@@H]2[C@]3(c4ccccc4)CC[C@@H](c4ccccc43)[C@]2(C(=O)O)C1 (relative stereo)
[S] C=C(C(=O)N1C[C@H]2[C@@]3(c4ccccc4)CC[C@H](c4ccccc43)[C@@]2(C(=O)NCc2cscn2)C1)c1ccccc1OC
[T] C=C(C(=O)N1C[C@H]2[C@@]3(c4ccccc4)CC[C@H](c4ccccc43)[C@@]2(C(=O)NCc2cccnc2)C1)c1ccccc1OC
List the 5 entries from lowest IC50 to highest IC50 value. Reply format: the labels, ordered as requested. T, S, R, Q, P
(T: 160 nM, S: 360 nM, R: 2950 nM, Q: 4900 nM, P: 10000 nM)

* * *

molecular target: human farnesyl transferase (Homo sapiens, UniProt P49354+P49356); construct: human farnesyl transferase purified from THP1 cell cultures; endogenous in cells; host or cells: THP1 cell cultures (enzyme purified from the cells); test: inhibition of farnesyl transferase ((3H) farnesyl transfer from (3H) FPP to p21 H-ras); type: biochemical; conditions: human farnesyl transferase purified from THP1 cell cultures; p21 H-ras substrate; 20 minutes at 37° C.; 9 concentrations; read-out: in vitro inhibitory activity IC50
test.readout: IC50 (µM)

compound	test.readout	readout.value
COc1ccccc1CC(=O)N1C[C@@H]2[C@]3(c4ccccc4)CC[C@@H](c4ccccc43)[C@]2(C(=O)NOCc2ccccc2)C1 (racemic)	IC50	1.27
C=C(C(=O)N1C[C@H]2[C@@]3(c4ccccc4)CC[C@H](c4ccccc43)[C@@]2(C(=O)NCc2ccc(OC)c(OC)c2)C1)c1ccccc1OC	IC50	0.97
COc1ccccc1CC(=O)N1C[C@@H]2[C@]3(c4ccccc4)CC[C@@H](c4ccccc43)[C@]2(C(=O)N(C)CC(=O)O)C1 (relative stereo)	IC50	1.1

* * *

biological target: human farnesyl transferase (Homo sapiens, UniProt P49354+P49356); construct: human farnesyl transferase purified from THP1 cell cultures; endogenous in cells; host or cells: THP1 cell cultures (enzyme purified from the cells); assay: inhibition of farnesyl transferase ((3H) farnesyl transfer from (3H) FPP to p21 H-ras); format: biochemical; conditions: human farnesyl transferase purified from THP1 cell cultures; p21 H-ras substrate; 20 minutes at 37° C.; 9 concentrations; read-out: in vitro inhibitory activity IC50
pIC50: −log10 of the molar value.
test.readout: pIC50

Field: example entries. Status: answers known.
compound	pIC50
CNC(=O)[C@@]12CN(C(=O)Cc3ccccc3OC)C[C@@H]1[C@]1(c3ccccc3)CC[C@H]2c2ccccc21 (relative stereo) [Example 54]	5.33
C=C(C(=O)N1C[C@@H]2[C@]3(c4ccccc4)CC[C@@H](c4ccccc43)[C@]2(C(=O)NOC)C1)c1ccccc1OC (racemic) [Example 44]	6.96
COc1ccccc1CC(=O)N1C[C@H]2[C@@]3(c4ccccc4)CC[C@H](c4ccccc43)[C@@]2(C(=O)NCC(=O)O)C1 (relative stereo) [Example 67]	6.02
COc1ccccc1CC(=O)N1CC2C3(c4ccccc4)CCC(c4ccccc43)C2(C(=O)N[C@@H](CSCc2ccccc2)C(=O)O)C1 (stereo partly drawn) [Example 52]	6.36
CCOC(=O)[C@]12CN(C(=O)Cc3ccccc3OC)C[C@H]1[C@@]1(c3ccccc3)CC[C@@H]2c2ccccc21 (relative stereo) [Example 10]	5.36
COc1cccc(CC(=O)N2C[C@@H]3[C@]4(c5ccccc5)CC[C@@H](c5ccccc54)[C@]3(C(=O)O)C2)c1OC (relative stereo) [Example 36]	5.43
COc1ccccc1CC(=O)N1C[C@@H]2[C@]3(c4ccccc4)CC[C@@H](c4ccccc43)[C@]2(C(=O)NCCC(=O)O)C1 (relative stereo) [Example 50]	5.89
C=C(C(=O)N1C[C@H]2[C@@]3(c4ccccc4)CC[C@H](c4ccccc43)[C@@]2(C(=O)NCc2ccccc2OC)C1)c1ccccc1OC [Example 82]	6.68
C=C(C(=O)N1CC2C3(c4ccccc4)CCC(c4ccccc43)C2(C(=O)N[C@H](C)c2ccccc2)C1)c1ccccc1OC (single isomer, unassigned) [Example 9]	6.72
COc1ccccc1CC(=O)N1C[C@H]2[C@@]3(c4ccccc4)CC[C@H](c4ccccc43)[C@@]2(NC(=O)CN)C1 (relative stereo) [Example 12]	5.12

[a] C/C=C(/C(=O)N1C[C@@H]2[C@]3(c4ccccc4)CC[C@@H](c4ccccc43)[C@]2(C(=O)O)C1)c1ccccc1OC (racemic) [Example 78]
[b] CNCCNC(=O)[C@]12CN(C(=O)Cc3ccccc3OC)C[C@H]1[C@@]1(c3ccccc3)CC[C@@H]2c2ccccc21 (relative stereo) [Example 5]
Could you tell me which of a and b has the lower pIC50 reading? Answer format: the label of the selected item. b
